System: Hs578T multi-cell spheroids, viability
Experiment: Anticancer human tumor Hs578T cell line growth inhibition [IpAb];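 further: drug exposure lasted 7 days before readout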
Conditions: second compound 0.0316 µM; first compound 0.0316 µM; stronger effect = lower value
Recorded metric: viability, T/C (%)
Form entry: value (%) — number only.

Solved entries (count: 2):
| Compound | viability, T/C, % |
| --- | --- |
| CC(C)n1nc(-c2ccc3oc(N)nc3c2)c2c(N)ncnc21 + CCN1CCN(Cc2ccc(Nc3ncc(F)c(-c4cc(F)c5nc(C)n(C(C)C)c5c4)n3)nc2)CC1 | 18.3 |
| C=CCn1c(=O)c2cnc(Nc3ccc(N4CCN(C)CC4)cc3)nc2n1-c1cccc(C(C)(C)O)n1 + CCN1CCN(Cc2ccc(Nc3ncc(F)c(-c4cc(F)c5nc(C)n(C(C)C)c5c4)n3)nc2)CC1 | 86.3 |

We now examine a further compound.
Problem: Field request: viability, T/C | item: COc1c(OCCCN2CCOCC2)ccc2c3n(c(=NC(=O)c4cnc(N)nc4)nc12)CCN3 + CCN1CCN(Cc2ccc(Nc3ncc(F)c(-c4cc(F)c5nc(C)n(C(C)C)c5c4)n3)nc2)CC1
Solution: 40.5

* * *

Some compounds, each annotated with its measured viability, T/C.
Tested on: Hs578T multi-cell spheroids, viability
Assay: Anticancer human tumor Hs578T cell line growth inhibition [IpAb];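 further: drug exposure lasted 7 days before readout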
Conditions: second compound 0.1 µM; first compound 0.316 µM; stronger effect = lower value

| Compound | System name | Recorded metric | Reported value |
| --- | --- | --- | --- |
| CCCS(=O)(=O)Nc1ccc(F)c(C(=O)c2c[nH]c3ncc(-c4ccc(Cl)cc4)cc23)c1F + CC(C)NCC(C(=O)N1CCN(c2ncnc3c2C(C)CC3O)CC1)c1ccc(Cl)cc1 | Hs578T multi-cell spheroids, viability | viability, T/C | 92.3% |
| C=CCn1c(=O)c2cnc(Nc3ccc(N4CCN(C)CC4)cc3)nc2n1-c1cccc(C(C)(C)O)n1 + CC(C)NCC(C(=O)N1CCN(c2ncnc3c2C(C)CC3O)CC1)c1ccc(Cl)cc1 | Hs578T multi-cell spheroids, viability | viability, T/C | 49.4% |
| Cc1nc(NC(=O)N2CCCC2C(N)=O)sc1-c1ccnc(C(C)(C)C(F)(F)F)c1 (stereo not given) + CCN1CCN(Cc2ccc(Nc3ncc(F)c(-c4cc(F)c5nc(C)n(C(C)C)c5c4)n3)nc2)CC1 | Hs578T multi-cell spheroids, viability | viability, T/C | 60.6% |

Problem: Field request: viability, T/C | item: CC1(C)CCC(CN2CCN(c3ccc(C(=O)NS(=O)(=O)c4ccc(NCC5CCOCC5)c([N+](=O)[O-])c4)c(Oc4cnc5[nH]ccc5c4)c3)CC2)=C(c2ccc(Cl)cc2)C1 + CC(C)NCC(C(=O)N1CCN(c2ncnc3c2C(C)CC3O)CC1)c1ccc(Cl)cc1
Solution: 101%

Problem: Can you handle CC1(C)CCC(CN2CCN(c3ccc(C(=O)NS(=O)(=O)c4ccc(NCC5CCOCC5)c([N+](=O)[O-])c4)c(Oc4cnc5[nH]ccc5c4)c3)CC2)=C(c2ccc(Cl)cc2)C1 + CCN1CCN(Cc2ccc(Nc3ncc(F)c(-c4cc(F)c5nc(C)n(C(C)C)c5c4)n3)nc2)CC1 next?
Solution: 84.6%

* * *

Test system: Hs578T multi-cell spheroids, viability
Experiment: Anticancer human tumor Hs578T cell line growth inhibition [IpAb];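 further: drug exposure lasted 7 days before readout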
Settings: second compound 10 µM; first compound 0.0316 µM; stronger effect = lower value
Method: Combinatorial screen of targeted agents with ipatasertib and abemaciclib in multi-cell type tumor spheroids […] Compounds. […] If the clinical Cmax for an agent had not been determined, the highest concentration tested was 10 microM. NCI60 Cell Culture. […] The optimal seeding densities for each of the cell lines at each time point assessed were determined prior to performing the concentration response studies. […]
Recorded metric: viability, T/C (%)
Form entry: value (%) — number only.

Solved entries (count: 6):
| Molecule | viability, T/C / % |
| --- | --- |
| Cn1ncnc1[C@H]1c2n[nH]c(=O)c3cc(F)cc(c23)N[C@@H]1c1ccc(F)cc1 + CC(C)NCC(C(=O)N1CCN(c2ncnc3c2C(C)CC3O)CC1)c1ccc(Cl)cc1 | 43.3 |
| COc1c(OCCCN2CCOCC2)ccc2c3n(c(=NC(=O)c4cnc(N)nc4)nc12)CCN3 + CC(C)NCC(C(=O)N1CCN(c2ncnc3c2C(C)CC3O)CC1)c1ccc(Cl)cc1 | 33.6 |
| C=CCn1c(=O)c2cnc(Nc3ccc(N4CCN(C)CC4)cc3)nc2n1-c1cccc(C(C)(C)O)n1 + CC(C)NCC(C(=O)N1CCN(c2ncnc3c2C(C)CC3O)CC1)c1ccc(Cl)cc1 | 49.2 |
| CCCS(=O)(=O)Nc1ccc(F)c(C(=O)c2c[nH]c3ncc(-c4ccc(Cl)cc4)cc23)c1F + CC(C)NCC(C(=O)N1CCN(c2ncnc3c2C(C)CC3O)CC1)c1ccc(Cl)cc1 | 48.3 |
| C=CC(=O)N1CCN(c2nc(=O)n(-c3c(C)ccnc3C(C)C)c3nc(-c4c(O)cccc4F)c(F)cc23)C(C)C1 (configuration not stated) + CC(C)NCC(C(=O)N1CCN(c2ncnc3c2C(C)CC3O)CC1)c1ccc(Cl)cc1 | 45.1 |
| Cn1ncc(Cl)c1-c1cc(C(=O)NC(CN)Cc2cccc(F)c2)sc1Cl (configuration not stated) + CC(C)NCC(C(=O)N1CCN(c2ncnc3c2C(C)CC3O)CC1)c1ccc(Cl)cc1 | 42.7 |

Problem: Field request: viability, T/C | item: CC(C)n1nc(-c2ccc3oc(N)nc3c2)c2c(N)ncnc21 + CC(C)NCC(C(=O)N1CCN(c2ncnc3c2C(C)CC3O)CC1)c1ccc(Cl)cc1
Solution: 11.4
